Sourced from the supplement of paper PMC10307832

I'd be grateful if you could share measured relative viability for these entries.
# System: NCI-H1993
# test description: relative viability (nuclei count vs DMSO), 5 days (fraction); higher = more cells survive
# cond: first compound 1.265 µM
Give the value as a plain number.

Lab book: relative viability of Clc1ccc(Nc2nnc(Cc3ccncc3)c3ccccc23)cc1 [Vatalanib] + CC(=O)c1c(C)c2cnc(Nc3ccc(N4CCNCC4)cn3)nc2n(C2CCCC2)c1=O [Palbociclib] (partner 0.5 µM) noted as 0.562

Lab book: relative viability of COc1cc(N2CCC(C(N)=O)CC2)ccc1Nc1nc(N)c(Cl)c(Nc2ccccc2S(=O)(=O)C(C)C)n1 [HG-5-88-01] + CC1(C)CCC(c2ccc(Cl)cc2)=C(CN2CCN(c3ccc(C(=O)NS(=O)(=O)c4ccc(N[C@H](CCN5CCOCC5)CSc5ccccc5)c(S(=O)(=O)C(F)(F)F)c4)cc3)CC2)C1 [Navitoclax] (partner 0.5 µM) noted as 0.736

Lab book: relative viability of Clc1ccc(Nc2nnc(Cc3ccncc3)c3ccccc23)cc1 [Vatalanib] + N=C(N)NC(=N)NCCc1ccccc1 [Phenformin] (partner 250 µM) noted as 0.482

Lab book: relative viability of COc1cc(N2CCC(C(N)=O)CC2)ccc1Nc1nc(N)c(Cl)c(Nc2ccccc2S(=O)(=O)C(C)C)n1 [HG-5-88-01] + Cc1cc(Nc2cc(N3CCN(C)CC3)nc(Sc3ccc(NC(=O)C4CC4)cc3)n2)n[nH]1 [Tozasertib] (partner 0.1 µM) noted as 0.556

###

# Test system: PC-3 [JPC-3]
# test description: relative viability (nuclei count vs DMSO), 5 days (fraction); higher = more cells survive
# cond: first compound 0.4 µM
parameter: relative viability

Clc1ccc(Nc2nnc(Cc3ccncc3)c3ccccc23)cc1 [Vatalanib] + O=C(c1cc(Cc2n[nH]c(=O)c3ccccc23)ccc1F)N1CCN(C(=O)C2CC2)CC1 [Olaparib] (partner 8 µM) on PC-3 [JPC-3] gives relative viability = 0.786

C[C@@H]1CN(CC(=O)Nc2ccc3c(c2)Cc2cccc(-c4cc(=O)cc(N5CCOCC5)o4)c2S3)C[C@H](C)O1 + CS(=O)(=O)N1CCN(Cc2cc3nc(-c4cccc5[nH]ncc45)nc(N4CCOCC4)c3s2)CC1 [Pictilisib] (partner 1 µM) on PC-3 [JPC-3] gives relative viability = 0.801

COc1cc(N2CCC(C(N)=O)CC2)ccc1Nc1nc(N)c(Cl)c(Nc2ccccc2S(=O)(=O)C(C)C)n1 [HG-5-88-01] + C[C@@H](Oc1cc(-c2cnn(C3CCNCC3)c2)cnc1N)c1c(Cl)ccc(F)c1Cl [Crizotinib] (partner 1 µM) on PC-3 [JPC-3] gives relative viability = 1.07

C[C@@H]1CN(CC(=O)Nc2ccc3c(c2)Cc2cccc(-c4cc(=O)cc(N5CCOCC5)o4)c2S3)C[C@H](C)O1 + CCNC(=O)c1noc(-c2cc(C(C)C)c(O)cc2O)c1-c1ccc(CN2CCOCC2)cc1 [Luminespib] (partner 0.01 µM) on PC-3 [JPC-3] gives relative viability = 0.728

###

# System: LXF-289
# test description: relative viability (nuclei count vs DMSO), 5 days (fraction); higher = more cells survive
# cond: first compound 0.4 µM
I'd be grateful if you could share measured relative viability for these entries.
Give the value as a plain number.

Lab book: relative viability of C[C@@H]1CN(CC(=O)Nc2ccc3c(c2)Cc2cccc(-c4cc(=O)cc(N5CCOCC5)o4)c2S3)C[C@H](C)O1 + C[C@@H](Oc1cc(-c2cnn(C3CCNCC3)c2)cnc1N)c1c(Cl)ccc(F)c1Cl [Crizotinib] (partner 1 µM) noted as 0.814

Lab book: relative viability of C[C@@H]1CN(CC(=O)Nc2ccc3c(c2)Cc2cccc(-c4cc(=O)cc(N5CCOCC5)o4)c2S3)C[C@H](C)O1 + CS(=O)(=O)N1CCN(Cc2cc3nc(-c4cccc5[nH]ncc45)nc(N4CCOCC4)c3s2)CC1 [Pictilisib] (partner 1 µM) noted as 0.78

Lab book: relative viability of COc1cc(N2CCC(C(N)=O)CC2)ccc1Nc1nc(N)c(Cl)c(Nc2ccccc2S(=O)(=O)C(C)C)n1 [HG-5-88-01] + CC(=O)Nc1cccc(-n2c(=O)n(C3CC3)c(=O)c3c(Nc4ccc(I)cc4F)n(C)c(=O)c(C)c32)c1 [Trametinib] (partner 0.02 µM) noted as 0.511

Lab book: relative viability of COc1cc(N2CCC(C(N)=O)CC2)ccc1Nc1nc(N)c(Cl)c(Nc2ccccc2S(=O)(=O)C(C)C)n1 [HG-5-88-01] + C[C@]1(O)C[C@@H](c2nc(-c3ccc4ccc(-c5ccccc5)nc4c3)c3c(N)nccn32)C1 [Linsitinib] (partner 1 µM) noted as 0.961

###

I'd be grateful if you could share measured relative viability for these entries.
# System: NCI-H1563
# test description: relative viability (nuclei count vs DMSO), 5 days (fraction); higher = more cells survive
# cond: first compound 2.53 µM

Lab book: relative viability of CCCCCCCCCCCC1=C(O)C(=O)C=C(O)C1=O [Embelin] + CCNC(=O)c1noc(-c2cc(C(C)C)c(O)cc2O)c1-c1ccc(CN2CCOCC2)cc1 [Luminespib] (partner 0.01 µM) noted as 0.526

Lab book: relative viability of CCCCCCCCCCCC1=C(O)C(=O)C=C(O)C1=O [Embelin] + N=C(N)NC(=N)NCCc1ccccc1 [Phenformin] (partner 250 µM) noted as 0.626

Lab book: relative viability of CCCCCCCCCCCC1=C(O)C(=O)C=C(O)C1=O [Embelin] + COc1cc2c(Oc3ccc(NC(=O)C4(C(=O)Nc5ccc(F)cc5)CC4)cc3F)ccnc2cc1OCCCN1CCOCC1 [Foretinib] (partner 0.25 µM) noted as 0.944

Lab book: relative viability of CCCCCCCCCCCC1=C(O)C(=O)C=C(O)C1=O [Embelin] + CC(C)C[C@H](NC(=O)[C@H](Cc1ccccc1)NC(=O)c1cnccn1)B(O)O [Bortezomib] (partner 0.002 µM) noted as 0.787

Lab book: relative viability of CCCCCCCCCCCC1=C(O)C(=O)C=C(O)C1=O [Embelin] + CS(=O)(=O)N1CCN(Cc2cc3nc(-c4cccc5[nH]ncc45)nc(N4CCOCC4)c3s2)CC1 [Pictilisib] (partner 1 µM) noted as 0.517

Lab book: relative viability of CCCCCCCCCCCC1=C(O)C(=O)C=C(O)C1=O [Embelin] + Cc1nc(Nc2ncc(C(=O)Nc3c(C)cccc3Cl)s2)cc(N2CCN(CCO)CC2)n1 [Dasatinib] (partner 0.075 µM) noted as 0.405

###

# Test system: HCC-15
# test description: relative viability (nuclei count vs DMSO), 5 days (fraction); higher = more cells survive
# cond: first compound 0.04 µM
I'd be grateful if you could share measured relative viability for these entries.
Give the value as a plain number.

Lab book: relative viability of Clc1ccc(Nc2nnc(Cc3ccncc3)c3ccccc23)cc1 [Vatalanib] + O=C(c1cc(Cc2n[nH]c(=O)c3ccccc23)ccc1F)N1CCN(C(=O)C2CC2)CC1 [Olaparib] (partner 8 µM) noted as 0.795

Lab book: relative viability of C[C@@H]1CN(CC(=O)Nc2ccc3c(c2)Cc2cccc(-c4cc(=O)cc(N5CCOCC5)o4)c2S3)C[C@H](C)O1 + Cc1nc(Nc2ncc(C(=O)Nc3c(C)cccc3Cl)s2)cc(N2CCN(CCO)CC2)n1 [Dasatinib] (partner 0.075 µM) noted as 0.659

Lab book: relative viability of Clc1ccc(Nc2nnc(Cc3ccncc3)c3ccccc23)cc1 [Vatalanib] + C[C@]1(O)C[C@@H](c2nc(-c3ccc4ccc(-c5ccccc5)nc4c3)c3c(N)nccn32)C1 [Linsitinib] (partner 1 µM) noted as 0.937

Lab book: relative viability of C[C@@H]1CN(CC(=O)Nc2ccc3c(c2)Cc2cccc(-c4cc(=O)cc(N5CCOCC5)o4)c2S3)C[C@H](C)O1 + CC(=O)Nc1cccc(-n2c(=O)n(C3CC3)c(=O)c3c(Nc4ccc(I)cc4F)n(C)c(=O)c(C)c32)c1 [Trametinib] (partner 0.02 µM) noted as 0.374

Lab book: relative viability of COc1cc(N2CCC(C(N)=O)CC2)ccc1Nc1nc(N)c(Cl)c(Nc2ccccc2S(=O)(=O)C(C)C)n1 [HG-5-88-01] + CC(=O)c1c(C)c2cnc(Nc3ccc(N4CCNCC4)cn3)nc2n(C2CCCC2)c1=O [Palbociclib] (partner 0.5 µM) noted as 0.772

Lab book: relative viability of Clc1ccc(Nc2nnc(Cc3ccncc3)c3ccccc23)cc1 [Vatalanib] + C[C@@H](Oc1cc(-c2cnn(C3CCNCC3)c2)cnc1N)c1c(Cl)ccc(F)c1Cl [Crizotinib] (partner 1 µM) noted as 0.9

Lab book: relative viability of Clc1ccc(Nc2nnc(Cc3ccncc3)c3ccccc23)cc1 [Vatalanib] + O=C(CCCCCCC(=O)Nc1ccccc1)NO [Vorinostat] (partner 1 µM) noted as 0.853

Lab book: relative viability of Clc1ccc(Nc2nnc(Cc3ccncc3)c3ccccc23)cc1 [Vatalanib] + NC(=O)Nc1cc(-c2cccc(F)c2)sc1C(=O)N[C@H]1CCCNC1 [AZD7762] (partner 0.2 µM) noted as 1.18

Lab book: relative viability of COc1cc(N2CCC(C(N)=O)CC2)ccc1Nc1nc(N)c(Cl)c(Nc2ccccc2S(=O)(=O)C(C)C)n1 [HG-5-88-01] + CCNC(=O)c1noc(-c2cc(C(C)C)c(O)cc2O)c1-c1ccc(CN2CCOCC2)cc1 [Luminespib] (partner 0.01 µM) noted as 0.386
